# experimental_system: T1, HEL (hDicer helicase domain) (Homo sapiens, UniProt Q9UPY3 1-624)
# T1 sequence: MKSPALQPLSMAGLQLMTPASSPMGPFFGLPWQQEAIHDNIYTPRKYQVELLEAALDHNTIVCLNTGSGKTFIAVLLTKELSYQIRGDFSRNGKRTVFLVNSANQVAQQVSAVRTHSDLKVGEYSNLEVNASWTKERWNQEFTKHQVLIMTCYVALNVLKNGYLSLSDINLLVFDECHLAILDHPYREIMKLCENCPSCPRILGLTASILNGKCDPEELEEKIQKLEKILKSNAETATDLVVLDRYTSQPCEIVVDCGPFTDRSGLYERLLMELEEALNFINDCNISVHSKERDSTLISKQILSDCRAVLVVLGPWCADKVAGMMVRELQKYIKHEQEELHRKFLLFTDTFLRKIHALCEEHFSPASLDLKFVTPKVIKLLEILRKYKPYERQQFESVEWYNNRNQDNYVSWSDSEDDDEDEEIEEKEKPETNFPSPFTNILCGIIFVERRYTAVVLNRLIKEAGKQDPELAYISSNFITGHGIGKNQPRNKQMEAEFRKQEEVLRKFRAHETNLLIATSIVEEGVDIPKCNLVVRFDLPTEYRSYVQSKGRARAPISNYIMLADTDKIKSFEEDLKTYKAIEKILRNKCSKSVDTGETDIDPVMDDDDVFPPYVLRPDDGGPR
# protocol_text: EMSA; 50 mM Tris-HCl pH 7.5, 150 mM NaCl; EMSA 15 min at room temperature (also 4 and 37 C), 5% native PAA gel in 1x TBE at 4 C; BLI 23 C
# assay_setup: protein: recombinant; tags: N-terminal His6 (pMCSG7); label: 5' 32P (EMSA); none (BLI)
property_name: Kd

What does the record list as Kd for D56 (ssDNA) DNA: GGGAGAATCATAAGTAGCGCAGTGAGTCGTTGTGCTGCCCATGTTAACAGTTAGCC ? ~7.4 µM

What does the record list as Kd for GGGAGAATCATAAGTAGCCTCCCCCCATGTTAACAGTTAGCC (ssDNA) [D42] ? ~8.5 µM

Where do these numbers come from? They come from paper PMC11658451.
